Tested on: A549 NSCLC
Measurement description: NCI tumour cell line growth inhibition, 48 h
Record form. Attribute: TGI. Fill in for each entry.

Ask: Answer with reported TGI of C[C@H](CCC(=O)NCCS(=O)(=O)O)[C@H]1CC[C@H]2[C@@H]3CC[C@@H]4C[C@H](O)CC[C@]4(C)[C@H]3CC[C@]12C
Reply: > 100 µM

Ask: Answer with reported TGI of CC(=O)O[C@H]1CC[C@@]2(C)C(=CC[C@H]3[C@@H]4CC[C@H](c5cc(C(F)(F)F)n(C(C)=O)n5)[C@@]4(C)CC[C@@H]32)C1
Reply: 20.5 µM

Ask: Answer with reported TGI of Cc1ccc(SC(CCC(Sc2ccc(C)cc2)Sc2ccc(C)cc2)Sc2ccc(C)cc2)cc1
Reply: > 100 µM

Ask: Answer with reported TGI of N#CCc1n[nH]c(Cc2ccccc2)n1
Reply: > 100 µM

Ask: Answer with reported TGI of C=C(c1ccc2nc(NC(=O)OC)[nH]c2c1)c1cccs1
Reply: > 100 µM

Ask: Answer with reported TGI of COc1cc(C#Cc2ccc(=O)oc2C#Cc2ccccc2)cc(OC)c1OC
Reply: 43.9 µM

Ask: Answer with reported TGI of COc1ccc2c(c1)C(=O)c1c-2n(CCCN=[N+]=[N-])c(=O)c2cc(OC)c(OC)cc12
Reply: > 100 µM

Ask: Answer with reported TGI of O=C1c2ccccc2-c2c1c1c(=O)[nH]c3ccccc3c1n2Cc1ccccc1
Reply: > 100 µM

Ask: Answer with reported TGI of CCCCCC(=O)C(C)C1=Nc2nnc(CCCCCCCc3nnc4n3C(=O)C(C(C)C(=O)CCCCC)=N4)n2C1=O (stereo unspecified)
Reply: > 100 µM

Ask: Answer with reported TGI of Cc1c(Cl)c2ccccc2n1S(=O)(=O)c1ccccc1
Reply: > 100 µM

Ask: Answer with reported TGI of COC(=O)NCCc1[nH]nc2c1C(=O)C=C(N1CCOCC1)C2=O
Reply: > 100 µM

Ask: Answer with reported TGI of C=C1C(=O)O[C@@H]2C[C@@H](C)[C@@H]3C=CC(=O)[C@@]3(C)[C@@H](OC(=O)CC(=O)O[C@H]3[C@@H]4C(=C)C(=O)O[C@@H]4C[C@@H](C)[C@@H]4C=CC(=O)[C@]43C)[C@H]12
Reply: 2.46 µM

Ask: Answer with reported TGI of CCCCCC[N+](C)(C)Cc1ccc(C[N+](C)(C)CCCCCC)cc1
Reply: 12.8 µM

Ask: Answer with reported TGI of Nc1ccc(C2=NN(c3ccccc3)C(c3ccc(Cl)cc3)C2)cc1 (stereo unspecified)
Reply: 7.98 µM

Ask: Answer with reported TGI of CC[C@H](O)[C@H](C)C=C1SCCCS1
Reply: > 100 µM

Ask: Answer with reported TGI of CC(NC(=O)C(C)NC(=O)C(N)CCP(C)(=O)O)C(=O)O (stereo unspecified)
Reply: > 100 µM

Ask: Answer with reported TGI of COC(=O)CCc1c[nH]c2ccc(N(CCCl)CCCl)cc12
Reply: > 100 µM

Ask: Answer with reported TGI of C=C1C(=O)O[C@H]2C[C@@H]1CC/C(C)=C/CC/C(C)=C/CC[C@H]2C
Reply: 33 µM

Ask: Answer with reported TGI of C1CCC2(CC1)O[C@@H]1[C@@H](O2)[C@@H](O[C@H]2O[C@@H]3COC4(CCCCC4)O[C@H]3[C@@H]3OC4(CCCCC4)O[C@@H]23)O[C@@H]2COC3(CCCCC3)O[C@@H]12
Reply: > 100 µM

Ask: Answer with reported TGI of CN[C@H]1C=C[C@@H]2/C=C(C)/C=C/[C@@H](C)[C@H]([C@H](C)[C@H](O)[C@@H](C)NC(C)=O)OC(=O)/C=C/C=C(C)\C=C\[C@]2(C)C1
Reply: > 49 µM

Ask: Answer with reported TGI of CCCNNC(=O)/C=C/c1ccc(CNCCc2c(C)[nH]c3ccccc23)cc1
Reply: 2.02 µM

Ask: Answer with reported TGI of O=C(Nc1cccc(-n2ccc3c(NC(=O)c4ccccc4)nccc32)c1)Nc1cc(C(F)(F)F)cc(C(F)(F)F)c1
Reply: > 50 µM

Ask: Answer with reported TGI of COc1cc(OC)cc(N(CCNC(C)C)c2ccc3ncc(-c4cnn(C)c4)nc3c2)c1
Reply: 19.1 µM

Ask: Answer with reported TGI of COc1ccc2nc3ccc(OC)cc3c(SCCO)c2c1
Reply: > 100 µM

Ask: Answer with reported TGI of CC(=O)OCCOCn1c2c(c(=S)[nH]c1=O)CCC2
Reply: > 100 µM

Ask: Answer with reported TGI of COC(=O)/C=C\n1c(C)cc(=O)[nH]c1=O
Reply: > 100 µM
